Data credit: patent US20260285875A1

tested-system: cellular PARG (Homo sapiens)
Construct: endogenous in cells
Sequence (Q86W56 whole entry): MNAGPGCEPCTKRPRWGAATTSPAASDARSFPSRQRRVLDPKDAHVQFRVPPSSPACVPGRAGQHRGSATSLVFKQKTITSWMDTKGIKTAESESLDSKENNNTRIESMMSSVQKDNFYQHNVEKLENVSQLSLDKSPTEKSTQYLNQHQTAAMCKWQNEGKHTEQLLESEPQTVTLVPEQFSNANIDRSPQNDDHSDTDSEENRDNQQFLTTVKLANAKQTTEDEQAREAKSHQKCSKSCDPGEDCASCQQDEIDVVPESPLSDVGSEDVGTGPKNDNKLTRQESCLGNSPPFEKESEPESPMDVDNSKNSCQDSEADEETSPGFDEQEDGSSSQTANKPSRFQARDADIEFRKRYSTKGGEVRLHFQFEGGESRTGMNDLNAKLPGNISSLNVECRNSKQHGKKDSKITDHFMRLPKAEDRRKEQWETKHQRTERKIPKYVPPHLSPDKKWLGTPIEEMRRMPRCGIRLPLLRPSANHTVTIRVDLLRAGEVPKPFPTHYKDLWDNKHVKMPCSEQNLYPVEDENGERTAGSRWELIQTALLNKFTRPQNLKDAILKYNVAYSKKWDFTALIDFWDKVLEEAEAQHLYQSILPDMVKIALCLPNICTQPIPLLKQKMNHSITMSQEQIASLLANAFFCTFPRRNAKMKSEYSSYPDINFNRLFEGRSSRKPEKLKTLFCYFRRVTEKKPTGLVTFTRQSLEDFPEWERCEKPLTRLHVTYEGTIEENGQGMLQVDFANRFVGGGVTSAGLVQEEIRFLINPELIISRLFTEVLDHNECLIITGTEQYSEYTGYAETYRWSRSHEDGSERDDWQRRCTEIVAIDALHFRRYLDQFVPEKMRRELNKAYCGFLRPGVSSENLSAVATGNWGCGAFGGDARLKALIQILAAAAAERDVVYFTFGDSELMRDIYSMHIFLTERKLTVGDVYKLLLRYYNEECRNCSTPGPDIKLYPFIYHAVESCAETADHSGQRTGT
assay-info: Nuclear PAR accumulation assay (immunofluorescence high-content imaging, MMS-treated HeLa cells)
experimental-conditions: 1 hour compound then MMS 50 μg/mL for an additional hour
pIC50: −log10 of the molar value.
What pIC50 was measured for each of the following?

## Input Report pIC50 for Cn1cc(CN2C(=O)c3cc(S(=O)(=O)NC4(C)CC4)ccc3N3C2=NC[C@H]3C#CC2CNC2)cn1 [Example 89] tested on cellular PARG (Homo sapiens).
## Output 5.00 to 6.00

## Input Please tell me: pIC50 of C#C[C@@H]1CN=C2N(Cc3cnn4c3CNCC4)C(=O)c3cc(S(=O)(=O)NC4(C)CC4)cc(Cl)c3N21 [Example 297] , system cellular PARG (Homo sapiens)?
## Output > 7.00

## Input # value lookup — system cellular PARG (Homo sapiens), readout pIC50, item CCN1C(=O)c2cc(S(=O)(=O)NC3(C)CC3)ccc2N2C1=NC[C@H]2C#Cc1cc(CN(C)C)nn1C [Example 195]
## Output > 7.00

## Input Form entry - test system: cellular PARG (Homo sapiens); read-out: pIC50; compound: CN1C(=O)c2cc(S(=O)(=O)NC3(C)CC3)cc(C3=CCN(C(=O)C4CC4)CC3)c2N2C1=N[C@H]1CCC[C@H]12 [Example 52]
## Output > 7.00

## Input Please tell me: pIC50 of CN1C(=O)c2cc(S(=O)(=O)NC3(C)CC3)ccc2N2C1=NC[C@H]2C#Cc1cnc2cccnn12 [Example 149] , system cellular PARG (Homo sapiens)?
## Output > 7.00

## Input What measured pIC50 is associated with C#C[C@H]1CN2C(=N1)N(Cc1cnn(C)c1)C(=O)c1cc(S(=O)(=O)NC3(C)CC3)ccc12 [Example 156] on cellular PARG (Homo sapiens)?
## Output 6.00 to 7.00

## Input Provide the documented pIC50 with cellular PARG (Homo sapiens) as the system for CN1C(=O)c2cc(S(=O)(=O)NC3(C)CC3)ccc2N2C1=NC[C@H]2C#Cc1cnn(C)c1 [Example 130]
## Output > 7.00

====

tested-system: cellular PARG (Homo sapiens)
Construct: endogenous in cells
assay-info: Nuclear PAR accumulation assay (immunofluorescence high-content imaging, MMS-treated HeLa cells)
experimental-conditions: 1 hour compound then MMS 50 μg/mL for an additional hour
Procedure: HeLa cells were plated at 15,000 cells/well in a 96-well plate the day before compound treatment and then treated with varying concentrations of test compound and incubated for 1 hour at 37° C.+5% CO2. […] Nuclear PAR accumulation was evaluated using high-content fluorescence microscopy. Four fields for each well were acquired at 20× magnification resulting in at least 1,000 cells analyzed per well. […] Both the average intensity per nucleus and percent PAR positive cells were quantified. […]
Assignment: determine reported IC50 for the given compounds.

## Input Quick one: IC50 for `C=Cc1cc(CN2C(=O)c3cc(S(=O)(=O)NC4(C)CC4)ccc3N3C2=NC[C@H]3C)ccn1` ?
## Output < 100 nM

## Input So what's the measured IC50 for this one? `Cn1cc(CN2C(=O)c3cc(S(=O)(=O)NC4(C)CC4)ccc3N3C2=NC[C@H]3CCC#N)cn1`
## Output 100 to 1000 nM

## Input Dear colleague, I am looking for the recorded IC50 of the following compound: `Cn1cc(CN2C(=O)c3cc(S(=O)(=O)NC4(C)CC4)ccc3N3C2=NC[C@H]3C#CC(C)(C)O)cn1`
## Output 100 to 1000 nM

## Input Endpoint output: IC50 of CN1C(=O)c2cc(S(=O)(=O)NC3(C)CC3)ccc2N2C1=NCC2C#Cc1ccnc2c1OCCO2 (centres unmarked) . Value?
## Output < 100 nM

## Input What value of measured IC50 is listed for `C[C@@H]1CN=C2N(Cc3cnn(C)c3)C(=O)c3cc(S(=O)(=O)NC4(C)CC4)cc(N4CCC(O)CC4)c3N21` ?
## Output 100 to 1000 nM

## Input Using the record for `Cn1cc(CN2C(=O)c3cc(S(=O)(=O)NC4(C)CC4)cc(Br)c3N3CCN=C23)cn1` , report its IC50.
## Output 100 to 1000 nM

## Input I am curious: what IC50 value has been reported for `Cn1cc(CN2C(=O)c3cc(S(=O)(=O)NC4(C)CC4)ccc3N3C2=NC[C@H]3C#Cc2c(F)cnn2C)cn1` ?
## Output < 100 nM

## Input Look up IC50 for this compound: `CN(C)C(=O)N1CC[C@@H]2N=C3N(Cc4cnn(C)c4)C(=O)c4cc(S(=O)(=O)NC5(C)CC5)ccc4N3[C@@H]2C1`
## Output 1000 to 10000 nM

## Input Recorded IC50 of `Cn1cc(C#C[C@@H]2CN=C3N(Cc4cnn(C)c4)C(=O)c4cc(S(=O)(=O)NC5(C)CC5)ccc4N32)cn1` , please.
## Output < 100 nM

## Input Reported IC50 for `Cc1nnc(N2C3=NC[C@@H](C)N3c3ccc(S(=O)(=O)NC4(C)CC4)cc32)s1` : what is it?
## Output 100 to 1000 nM

## Input Which IC50 value is on record for `[2H]C([2H])(c1cnn(C)c1)N1C(=O)c2cc(S(=O)(=O)NC3(C)CC3)cc(Br)c2N2C1=NC[C@H]2C#CC1CC1` ?
## Output < 100 nM

## Input Which IC50 value is on record for `Cn1cc(CN2C(=O)c3cc(S(=O)(=O)NC4(C)CC4)cc(-c4ccc(Cl)cc4)c3N3CCN=C23)cn1` ?
## Output 100 to 1000 nM

## Input Find the recorded IC50 belonging to `[2H]C([2H])(c1cnn(C)c1)N1C(=O)c2cc(S(=O)(=O)NC3(C)CC3)ccc2N2C1=NC[C@H]2C#Cc1cnc(OC)nc1` and report it.
## Output < 100 nM

## Input For `C[C@@H]1CN=C2N(C)C(=O)c3cc(S(=O)(=O)NC4(C)CC4)cc(N4CCC5(CC4)COC5)c3N21` , what is its reported IC50?
## Output < 100 nM

====

So I've got a bunch of compounds here, and I need their IC50 values.
tested-system: cellular PARG (Homo sapiens)
Construct: endogenous in cells
assay-info: Nuclear PAR accumulation assay (immunofluorescence high-content imaging, MMS-treated HeLa cells)
experimental-conditions: 1 hour compound then MMS 50 μg/mL for an additional hour

## Input Please tell me: IC50 of `CNC(=O)c1ccc(-c2cc(S(=O)(=O)NC3(C)CC3)cc3c2N2CC(C)(C)N=C2N(C)C3=O)cn1` , system cellular PARG (Homo sapiens)?
## Output 100 to 1000 nM

## Input Find the measured IC50: item CCN1C(=O)c2cc(S(=O)(=O)NC3(C)CC3)ccc2N2C1=NC[C@H]2C#Cc1cnn2c1OCC(NC)C2 (some centres unmarked) , target or system cellular PARG (Homo sapiens).
## Output 100 to 1000 nM

## Input Query for cellular PARG (Homo sapiens): what IC50 does the record show for `[2H]C([2H])(c1cnn(C)c1)N1C(=O)c2cc(S(=O)(=O)NC3(C)CC3)c(SC)cc2N2C1=N[C@H]1CCC[C@H]12` ?
## Output 100 to 1000 nM

## Input # get_value(readout= IC50, system= cellular PARG (Homo sapiens)) for `C[C@@H]1CN=C2N(Cc3ccnc(/C=C/CN(C)C)c3)C(=O)c3cc(S(=O)(=O)NC4(C)CC4)ccc3N21`
## Output 1000 to 10000 nM

## Input Quick check: IC50 on cellular PARG (Homo sapiens), item `Cn1cc(CN2C(=O)c3cc(S(=O)(=O)NC4(C)CC4)ccc3N3C2=NC[C@H]3C#Cc2ccnn2C2CC2)cn1` ?
## Output < 100 nM

## Input Checklist item: IC50 tested on cellular PARG (Homo sapiens), entry `CNC(=O)c1ccc(-c2cc(S(=O)(=O)NC3(C)CC3)cc3c2N2C(=N[C@H]4CCC[C@H]42)N(C)C3=O)cn1` , value?
## Output 100 to 1000 nM

## Input Give recorded IC50 with cellular PARG (Homo sapiens) for the following compound: `C[C@@H]1CN=C2N(CC(F)F)C(=O)c3cc(S(=O)(=O)NC4(C)CC4)ccc3N21`
## Output 100 to 1000 nM

## Input Requested read-out IC50, target or system cellular PARG (Homo sapiens), entry `CN1C(=O)c2cc(S(=O)(=O)NC3(C)CC3)ccc2N2C1=NC[C@H]2C#Cc1ccc2c(cnn2C)c1`
## Output < 100 nM

## Input Observed IC50 on cellular PARG (Homo sapiens) for `[2H]C([2H])(c1cnn(C)c1)N1C(=O)c2cc(S(=O)(=O)NC3(C)CC3)c(OC)cc2N2C1=N[C@H]1CCC[C@H]12` , please.
## Output 100 to 1000 nM

## Input Report IC50 for `CCN1C(=O)c2cc(S(=O)(=O)NC3(C)CC3)ccc2N2C1=NC[C@H]2C#Cc1c2ncccc2nn1C` tested on cellular PARG (Homo sapiens).
## Output < 100 nM

## Input What value of IC50 on cellular PARG (Homo sapiens) does C#CC1(C)CN=C2N(Cc3cnn(C)c3)C(=O)c3cc(S(=O)(=O)NC4(C)CC4)ccc3N21 (single isomer, unassigned) [Example 272] have?
## Output < 100 nM

## Input State its IC50 on cellular PARG (Homo sapiens): CN1C(=O)c2cc(S(=O)(=O)NC3(C)CC3)ccc2N2C1=NCC2C#Cc1ccnc(F)c1 (centres unmarked)
## Output < 100 nM

## Input Short answer please: IC50, cellular PARG (Homo sapiens), entry `Cn1ncc(C#C[C@@H]2CN=C3N(Cc4cnn5c4CNCC5)C(=O)c4cc(S(=O)(=O)NC5(C)CC5)ccc4N32)n1`
## Output < 100 nM

## Input Quick check: IC50 on cellular PARG (Homo sapiens), item `Cn1cc(CN2C(=O)c3cc(S(=O)(=O)NC4(C)CC4)ccc3N3C2=NC[C@H]3C(F)F)cn1` ?
## Output < 100 nM
